target: DAT (Rattus norvegicus, UniProt P23977); experiment: Inhibition of [3H]dopamine uptake in rat caudate synaptosomes; format: biochemical; details: read-out: IC50, nM (SD), inhibition at DAT; 5 nM [3H]dopamine uptake, rat caudate synaptosomes; mean ± SD, n = 3
Sequence (P23977 whole entry): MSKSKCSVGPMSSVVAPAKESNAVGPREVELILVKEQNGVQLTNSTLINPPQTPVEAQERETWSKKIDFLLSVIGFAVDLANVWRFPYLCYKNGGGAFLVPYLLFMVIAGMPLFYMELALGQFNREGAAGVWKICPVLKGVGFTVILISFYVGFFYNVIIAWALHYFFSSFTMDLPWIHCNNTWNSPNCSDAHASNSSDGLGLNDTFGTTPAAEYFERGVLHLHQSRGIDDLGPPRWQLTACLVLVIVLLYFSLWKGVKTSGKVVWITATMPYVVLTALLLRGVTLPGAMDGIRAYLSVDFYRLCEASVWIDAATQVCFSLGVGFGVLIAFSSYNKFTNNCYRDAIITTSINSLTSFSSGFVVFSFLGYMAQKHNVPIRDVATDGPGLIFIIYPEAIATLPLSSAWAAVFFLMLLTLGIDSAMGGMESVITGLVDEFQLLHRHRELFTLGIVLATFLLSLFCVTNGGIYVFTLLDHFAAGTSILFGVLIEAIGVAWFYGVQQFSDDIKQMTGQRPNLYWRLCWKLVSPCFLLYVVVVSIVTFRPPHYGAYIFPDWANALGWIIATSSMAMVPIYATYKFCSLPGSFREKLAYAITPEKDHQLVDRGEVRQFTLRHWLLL

[
  {
    "Compound": "CCCCC(C(=O)c1ccccc1)N1CCCC1 (stereo not shown)",
    "IC50 / nM": 11.6
  },
  {
    "Compound": "CCCC(C(=O)c1ccccc1)N1CCCC1 (stereo not drawn) [compound 7, α-Pyrrolidinovalerophenone, reference compound]",
    "IC50 / nM": 17.5
  },
  {
    "Compound": "CC(C)C(C(=O)c1ccccc1)N1CCCC1 (stereo not shown)",
    "IC50 / nM": 92.3
  },
  {
    "Compound": "O=C(CN1CCCC1)c1ccccc1.O=C(O)C(=O)O [compound 8, 2-(1-Pyrolidinyl)-1-acetophenone Oxalate]",
    "IC50 / nM": 3250
  }
]

---

Each record here notes measured pIC50.
target: DAT (Rattus norvegicus, UniProt P23977); experiment: Inhibition of [3H]dopamine uptake in rat caudate synaptosomes; assay type: biochemical
pIC50: −log10 of the molar value.
Measured Quantity: pIC50

[
  {
    "Compound": "O=C(O)C(=O)O.O=C1c2ccccc2CCC1N1CCCC1 (stereo not shown)",
    "Test Target": "DAT (Rattus norvegicus, UniProt P23977)",
    "Observed Result": 4.89
  },
  {
    "Compound": "CCCC(C(=O)c1ccccc1)N1CCCCC1 (stereo not shown)",
    "Test Target": "DAT (Rattus norvegicus, UniProt P23977)",
    "Observed Result": 6.89
  },
  {
    "Compound": "O=C(c1ccccc1)C(C1CCCCC1)N1CCCC1 (stereo not shown)",
    "Test Target": "DAT (Rattus norvegicus, UniProt P23977)",
    "Observed Result": 8.08
  },
  {
    "Compound": "O=C(c1ccccc1)C(C1CCCC1)N1CCCC1 (stereo not shown)",
    "Test Target": "DAT (Rattus norvegicus, UniProt P23977)",
    "Observed Result": 7.77
  }
]
